- Experimental Protocol: Aqueous solubility of the compound
- Type: physicochemical
- Measurement Parameters: buffer
Measured Metric: solubility

[
  {
    "Compound": "OC(Cn1cncn1)(Cn1cncn1)c1ccc(F)cc1F [FLUCONAZOLE]",
    "Recorded Value": "Soluble"
  },
  {
    "Compound": "CCCCCCCCCCCCN1CCNCC1",
    "Recorded Value": "Soluble"
  },
  {
    "Compound": "CCCCCCCCCCN1CCN(CC(O)(Cn2cncn2)c2ccc(F)cc2F)CC1 (stereo not drawn)",
    "Recorded Value": "Soluble"
  }
]

###

- Tested on: Candida albicans
- Experimental Protocol: Antibiofilm activity against voriconazole resistant Candida albicans ATCC 64124 sessile cells incubated for 24 hrs by XTT reduction assay
- Format: functional
- Measurement Parameters: ATCC 64124, 24 h
Items are presented alongside their recorded MIC80.
Measured Metric: MIC80 (µg/mL)

[
  {
    "Molecule": "CCCCCCCCCCN1CCN(CC(O)(Cn2cncn2)c2ccc(Cl)cc2Cl)CC1 (configuration not stated)",
    "Target System": "Candida albicans",
    "Recorded Value": 31.3
  },
  {
    "Molecule": "CCCCCCCCCCN1CCN(CC(O)(Cn2cncn2)c2ccc(F)cc2F)CC1 (configuration not stated)",
    "Target System": "Candida albicans",
    "Recorded Value": 62.5
  },
  {
    "Molecule": "CCCCCCCCCCCCN1CCNCC1",
    "Target System": "Candida albicans",
    "Recorded Value": 31.3
  },
  {
    "Molecule": "C[C@@H](c1ncncc1F)[C@](O)(Cn1cncn1)c1ccc(F)cc1F [VORICONAZOLE]",
    "Target System": "Candida albicans",
    "Recorded Value": 62.5
  },
  {
    "Molecule": "CCCCCCCCCCCCN1CCN(CC(O)(Cn2cncn2)c2ccc(Cl)cc2Cl)CC1 (configuration not stated)",
    "Target System": "Candida albicans",
    "Recorded Value": 31.3
  },
  {
    "Molecule": "CCCCCCCCCCCCN1CCN(CC(O)(Cn2cncn2)c2ccc(F)cc2F)CC1 (configuration not stated)",
    "Target System": "Candida albicans",
    "Recorded Value": 15.6
  },
  {
    "Molecule": "CCCCCCCCCCCCCCN1CCNCC1",
    "Target System": "Candida albicans",
    "Recorded Value": 62.5
  }
]
